- tested-system: Plasma Kallikrein (Homo sapiens (Human), UniProt P03952)
- Sequence (P03952 391-638): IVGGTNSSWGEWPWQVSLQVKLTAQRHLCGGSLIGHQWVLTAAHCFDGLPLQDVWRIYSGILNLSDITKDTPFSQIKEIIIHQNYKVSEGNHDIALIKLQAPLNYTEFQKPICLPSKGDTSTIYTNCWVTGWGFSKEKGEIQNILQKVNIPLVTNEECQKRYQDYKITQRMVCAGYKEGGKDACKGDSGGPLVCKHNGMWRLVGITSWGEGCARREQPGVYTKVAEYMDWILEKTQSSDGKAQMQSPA
- Sequence (P03952 20-390 partner): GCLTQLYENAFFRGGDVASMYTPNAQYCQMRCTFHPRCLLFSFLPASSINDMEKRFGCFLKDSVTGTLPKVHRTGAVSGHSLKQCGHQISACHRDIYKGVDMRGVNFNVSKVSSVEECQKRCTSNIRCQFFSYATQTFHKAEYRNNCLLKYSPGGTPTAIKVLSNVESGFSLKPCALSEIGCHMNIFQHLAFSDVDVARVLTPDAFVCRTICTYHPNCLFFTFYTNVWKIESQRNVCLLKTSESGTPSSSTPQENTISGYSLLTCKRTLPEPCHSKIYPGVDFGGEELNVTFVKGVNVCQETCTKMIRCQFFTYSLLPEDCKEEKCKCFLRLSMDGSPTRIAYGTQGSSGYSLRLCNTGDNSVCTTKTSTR
- assay-remarks: Determination of related protease inhibition: Plasma Kallikrein (fluorogenic substrate at Km)
- Assay type: biochemical
- condition-notes: 25° C., read-out: IC50 (human PKal)
pIC50: −log10 of the molar value.
test-readout: pIC50

Past entries and their recorded results:
> print(dat)
                                    compound   assay.value
 1  Cc1cc(N2CCn3c(nnc3C(F)(F)F)C2)ncc1CNc1cccc2c(N)nccc12        < 4.40
 2      CN1CCC(CNc2ccc(CNc3ccnc(N)c3)cn2)CC1        < 4.40
 3  CN1CCC(CNc2ccc(CNc3cc(C(N)=O)nc4[nH]ccc34)cn2)CC1        < 4.40
 4  Nc1nccc2c(NCc3ccc(OCC4CCn5ccnc5C4)nc3)cccc12 (single isomer, unassigned) [Example 1030]  4.40 to 5.00
 5  Nc1nccc2cc(NCc3ccnc(OCC4CCn5ccnc5C4)c3)ncc12 (centres unmarked)  5.00 to 5.52
 6   CN1CCC(CNc2ccc(CNc3ccnc4c3ccn4C)cn2)CC1        < 4.00
 7  Nc1nccc2c(NCc3cnc(NCCC(=O)N4CCCC4)nc3)cccc12        < 4.40
 8  CN1CCC(CNc2ccc(CNc3cc(F)c4cnccc4c3)cn2)CC1        < 4.00
 9  Cc1cc2c(NCc3ccc(NCC4CCN(C)CC4)nc3)ccnc2[nH]1        < 4.40
10  Cn1ccnc1CCCOc1ncc(CNc2cccc3c(N)nccc23)cn1        < 4.40

So for "FC(F)c1nnc2n1CCN(c1ccc(CNc3ccnc4[nH]c(Cl)cc34)cn1)C2" , the logged pIC50 turned out to be < 4.40

So for Nc1nccc2c(NCc3ccnc(OCC4CCn5c(nnc5C(F)F)C4)c3)cccc12 (centres unmarked) , the logged pIC50 turned out to be < 4.40

###

Parameter 'readout' = IC50; parameter 'system' = FXa (Homo sapiens (Human), UniProt P00742).
Sequence (P00742 235-488): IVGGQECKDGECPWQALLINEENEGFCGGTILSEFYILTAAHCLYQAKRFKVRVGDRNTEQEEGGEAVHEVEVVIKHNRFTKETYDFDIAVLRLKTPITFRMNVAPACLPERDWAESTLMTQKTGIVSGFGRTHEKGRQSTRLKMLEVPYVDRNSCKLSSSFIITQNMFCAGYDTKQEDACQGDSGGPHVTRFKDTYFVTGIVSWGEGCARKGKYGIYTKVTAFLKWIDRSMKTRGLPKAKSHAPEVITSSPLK
Sequence (P00742 41-179 partner): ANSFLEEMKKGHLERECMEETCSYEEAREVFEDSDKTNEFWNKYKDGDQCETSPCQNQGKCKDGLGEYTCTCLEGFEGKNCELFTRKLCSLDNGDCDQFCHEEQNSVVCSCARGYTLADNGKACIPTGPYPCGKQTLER

Past entries and their recorded results:
> print(dat)
                                   compound                             tested.system  assay.value
1  Cn1ccnc1CCCOc1ncc(CNc2cccc3c(N)nccc23)cn1 [Example 1035]  FXa (Homo sapiens (Human), UniProt P00742)      > 40 µM
2  CC(C)(O)c1cn(-c2ccc(CNc3cccc4c(N)nccc34)cn2)nn1 [Example 1291]  FXa (Homo sapiens (Human), UniProt P00742)      > 40 µM
3  Nc1ncc(Cl)c2cc(NCc3ccnc(N4CCn5ccnc5C4)c3)ccc12 [Example 4437]  FXa (Homo sapiens (Human), UniProt P00742)   3 to 10 µM
4  CN1CCC(CNc2cc(CNc3cccc4c(N)nccc34)ccn2)CC1 [Example 4286]  FXa (Homo sapiens (Human), UniProt P00742)      > 40 µM
5  CN1CC(C2CN(c3cc(CNc4ccc5c(N)nccc5c4)ccn3)C2)C1 [Example 5435]  FXa (Homo sapiens (Human), UniProt P00742)   3 to 10 µM
6  Nc1nccc2cc(NCc3ccc(COC4CCN(CC(F)F)CC4)cc3)ccc12 [Example 2196]  FXa (Homo sapiens (Human), UniProt P00742)  10 to 40 µM
7  CC1CN(c2ccc(CNc3cccc4c(N)nccc34)cn2)Cc2nnc(C(F)(F)F)n21 (single isomer, unassigned) [Example 1296]  FXa (Homo sapiens (Human), UniProt P00742)      > 40 µM

So for Nc1ncc(F)c2c(NCc3ccnc(OCC4CCn5ccnc5C4)c3)cccc12 (centres unmarked) [Example 4308] , the logged IC50 turned out to be > 40 µM

###

Parameter 'readout' = pIC50; parameter 'system' = KLK1 (Homo sapiens (Human), UniProt P06870).
Sequence (P06870 25-262): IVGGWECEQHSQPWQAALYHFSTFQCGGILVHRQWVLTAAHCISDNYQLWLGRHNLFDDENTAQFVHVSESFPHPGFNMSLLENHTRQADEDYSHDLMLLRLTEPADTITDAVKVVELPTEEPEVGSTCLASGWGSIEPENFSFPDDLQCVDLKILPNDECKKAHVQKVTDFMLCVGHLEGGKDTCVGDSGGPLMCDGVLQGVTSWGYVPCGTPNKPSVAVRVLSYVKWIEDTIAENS
pIC50: −log10 of the molar value.

Past entries and their recorded results:
> print(dat)
                                   compound  test.readout   assay.value
1  CC(C)N1C[C@@H]2C[C@H]1CN2CCc1ccc(CNc2cccc3c(N)nccc23)c(F)c1 (stereo in doubt) [Example 2212]         pIC50  4.40 to 5.00
2  Cn1ccnc1CCOc1cc(CNc2cccc3c(N)nccc23)ccn1 [Example 4282]         pIC50  5.00 to 5.52
3  CC1CN(c2ccc(CNc3cccc4c(N)nccc34)cn2)Cc2nnc(C(F)(F)F)n21 (stereo not shown) [Example 1287]         pIC50  5.52 to 6.00

So for Cc1nnc2n1CCN(c1ccc(CNc3cccc4c(N)nccc34)cn1)CC2 [Example 1310] , the logged pIC50 turned out to be 5.52 to 6.00

###

Parameter 'readout' = pIC50; parameter 'system' = UniProt P00742.
pIC50: −log10 of the molar value.

> print(dat)
                                   compound   tested.system  test.readout   assay.value
1  Nc1nccc2cc(NCc3ccnc(-c4cccc(CN5CCCC5)c4)c3)ccc12 [Example 4434]  UniProt P00742         pIC50  5.00 to 5.52
2  CN1CCC(COc2cc(CNc3cccc4c(N)nccc34)cc(C(F)(F)F)n2)CC1 [Example 4281]  UniProt P00742         pIC50        < 4.40
3  Cn1ncc2c1CCN(c1ccc(CNc3cccc4c(N)nccc34)cn1)C2 [Example 1286]  UniProt P00742         pIC50        < 4.40

Now consider the entry below.
So for N#Cc1cc(NCc2ccc(N3CCn4c(nnc4C(F)(F)F)C3)nc2)c2cc(Cl)[nH]c2n1 [Example 1292] , the logged pIC50 turned out to be < 4.40

###

- tested-system: Plasma Kallikrein (Homo sapiens (Human))
- assay-remarks: Determination of related protease inhibition: Plasma Kallikrein (fluorogenic substrate at Km)
- condition-notes: 25° C., read-out: IC50 (human PKal)
- Source text: Determination of Related Protease Inhibition […]
test-readout: IC50

Past entries and their recorded results:
> print(dat)
                                   compound  test.readout  assay.value
1  CN1CCC(CNc2ccc(CNc3ccc4c(N)ncc(F)c4c3)cn2)CC1          IC50   3 to 10 µM
2  Nc1ncc(Cl)c2cc(NCc3ccnc(OCC4CCn5ccnc5C4)c3)ccc12 (centres unmarked) [Example 4300]          IC50  10 to 40 µM
3  Cn1ccc(COc2cc(CNc3cccc4c(N)nccc34)ccn2)cc1=O          IC50       > 4 µM
4  CC(C)N1CCC(CN(CCCO)C(=O)c2cccc(CNc3cccc4c(N)nccc34)c2)CC1 [Example 4441]          IC50  10 to 40 µM
5  Nc1nccc2c(NCc3cnc(N4CCn5c(nnc5C(F)(F)F)C4)cc3Cl)cccc12          IC50      > 40 µM
6  Nc1ncc(Cl)c2cc(NCc3ccnc(OC4CCn5ccnc5C4)c3)ccc12 (centres unmarked)          IC50      > 40 µM
7  CN1CCC(CNc2ccc(CNc3ccnc4[nH]c(Cl)cc34)cn2)CC1          IC50      > 40 µM

Now consider the entry below.
So for CN1CC2C[C@H]1C[C@H]2OCc1ccc(CNc2ccc3c(N)nccc3c2)c(F)c1 (single isomer, unassigned) , the logged IC50 turned out to be 3 to 10 µM

###

- tested-system: KLK1 (Homo sapiens (Human), UniProt P06870)
- assay-remarks: Determination of related protease inhibition: KLK1 (fluorogenic substrate at Km)
- Format: biochemical
- condition-notes: 25° C.
pIC50: −log10 of the molar value.
This listing pairs compounds with measured pIC50.

> print(dat)
                           substance.smiles   assay.value
1  CN1CCC(CNc2ccc(CNc3ccc4cnccc4c3Cl)cn2)CC1        < 4.40
2  CN1CCC(CNc2ccc(CNc3ccc4c(N)nccc4c3)cn2)CC1  6.00 to 6.52

Now consider the entry below.
So for "Nc1nccc2c(NCc3cnc(N4CCn5c(nnc5C(F)(F)F)C4)nc3)cccc12" , the logged pIC50 turned out to be 5.00 to 5.52

###

- tested-system: Plasma Kallikrein (Homo sapiens (Human), UniProt P03952)
- assay-remarks: Determination of related protease inhibition: Plasma Kallikrein (fluorogenic substrate at Km)
- condition-notes: 25° C., read-out: IC50 (human PKal)
This listing pairs molecules with measured IC50.

> print(dat)
                                   molecule  assay.value
1  Nc1nccc2c(NCc3ccc(N4CCn5nccc5C4CO)nc3)cccc12 (centres unmarked)      > 40 µM
2  Nc1ncc(Cl)c2cc(NCc3ccnc(OCC4CCn5c(CO)cnc5C4)c3)ccc12 (centres unmarked)      > 40 µM
3  CN1CCC(CNc2ccc(CNc3cc4c(=O)[nH]ccn4c3)cn2)CC1     > 100 µM
4  CN1CCC(CNc2ccc(CNc3cncc4[nH]c(Cl)cc34)cn2)CC1  10 to 40 µM
5  Nc1nccc2c(NCc3ccc(OC4CCn5ccnc5C4)nc3)cccc12 (centres unmarked)      > 40 µM
6  Nc1ncc(Cl)c2cc(NCc3cccc(CC(=O)N4CCn5ccnc5C4)c3)ccc12      > 40 µM

Now consider the entry below.
So for Cc1cn2c(n1)CC(COc1cc(CNc3ccc4c(N)ncc(Cl)c4c3)ccn1)CC2 (single isomer, unassigned) [Example 4442] , the logged IC50 turned out to be 10 to 40 µM
